system: ATP; experiment: switch fluorescence ratio, 500 uM ATP over buffer (Cy3 cluster intensity, sum of 5 cycles each) (fold (ratio)); higher = stronger signal-on switching upon ATP binding; sequences stand for … in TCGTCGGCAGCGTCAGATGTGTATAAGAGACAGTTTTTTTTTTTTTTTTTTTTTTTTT…TC; details: aptamer strand: ATP DNA aptamer (quencher-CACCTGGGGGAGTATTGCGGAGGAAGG + anchor), 100 nM annealed; ATP concentration: 500 uM;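 further: ATP exposure 15 min at 22 °C before imaging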
ATTRIBUTE MEASURED: switch fluorescence ratio

Some solved cases for reference:
RESIDUE SEQUENCE	TARGET OF ASSAY	switch fluorescence ratio
CAAGTCAAGA	ATP	1.03
ACGTTTTTTT	ATP	0.988
GTTTTCCACA	ATP	0.987
TATGGATTGG	ATP	0.977
TTATTCCTTT	ATP	0.978
AACAAGTAAT	ATP	1
TTTAGTTACT	ATP	1.06
GATTTTGTAA	ATP	1.01
GGGGTTGCTG	ATP	1
TTTAACGCCA	ATP	1.08

Below are some sequences; for each one, tell me its switch fluorescence ratio.
1. TATAGGGAGT
2. TTCATAGTAC
3. CCCAAGGGCA
4. TTGCTATTTC

Reply:
[1.01, 1.2, 1.02, 1]

Below are some sequences; for each one, tell me its switch fluorescence ratio.
1. CAGGTCCGGG
2. TCGAGTTGCA
3. AGGGTTTACG
4. TTACGGGTCC
5. GGTTGGTGGT
6. TGGCTAGGAC

Reply:
1.02
1
1.05
0.961
1.03
1.01

###

test system: ATP; test: switch fluorescence ratio, 500 uM ATP over buffer (Cy3 cluster intensity, sum of 5 cycles each) (fold (ratio)); higher = stronger signal-on switching upon ATP binding; sequences stand for … in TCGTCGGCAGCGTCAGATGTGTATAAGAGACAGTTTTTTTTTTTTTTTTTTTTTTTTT…TC; settings: aptamer strand: ATP DNA aptamer (quencher-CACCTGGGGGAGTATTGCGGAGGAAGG + anchor), 100 nM annealed; ATP concentration: 500 uM;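 further: ATP exposure 15 min at 22 °C before imaging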
ATTRIBUTE MEASURED: switch fluorescence ratio
Give bare numbers.

Some solved cases for reference:
RESIDUE SEQUENCE	EXPERIMENTAL VALUE
TTACGCATCA	1.14
TGGTTGCAGG	1.05
TTTTTTAGGG	0.988
CGGTATGGTA	0.972
GCTAGGGGAA	0.985
TTGAATTAGA	0.965
TCGGGGGTGC	1.04
ATGTAGCATA	1.57

Below are some sequences; for each one, tell me its switch fluorescence ratio.
1. GATTTACTGG
2. GGAATTGGAT

Reply:
1. 1.04
2. 1

###

Give switch fluorescence ratio for every item shown.
tested on: ATP; experiment: switch fluorescence ratio, 500 uM ATP over buffer (Cy3 cluster intensity, sum of 5 cycles each) (fold (ratio)); higher = stronger signal-on switching upon ATP binding; sequences stand for … in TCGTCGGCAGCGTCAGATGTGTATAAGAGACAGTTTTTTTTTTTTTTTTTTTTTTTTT…TC; details: aptamer strand: ATP DNA aptamer (quencher-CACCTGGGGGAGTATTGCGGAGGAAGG + anchor), 100 nM annealed; ATP concentration: 500 uM;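 further: ATP exposure 15 min at 22 °C before imaging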
One number for each entry.

Below are some sequences; for each one, tell me its switch fluorescence ratio.
1. CGTATGCGCA
2. TTCTTTTTTT
3. GTTGAAATAA
4. CGTGAATTTT
5. AGTCGGGTCT
6. CGATGCGGGG

Reply:
1. 0.97
2. 1.01
3. 1
4. 1
5. 1.05
6. 1.01

###

test system: ATP; assay: switch fluorescence ratio, 500 uM ATP over buffer (Cy3 cluster intensity, sum of 5 cycles each) (fold (ratio)); higher = stronger signal-on switching upon ATP binding; sequences stand for … in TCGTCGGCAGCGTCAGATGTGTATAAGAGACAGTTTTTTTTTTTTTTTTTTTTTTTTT…TC; details: aptamer strand: ATP DNA aptamer (quencher-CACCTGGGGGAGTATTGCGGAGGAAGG + anchor), 100 nM annealed; ATP concentration: 500 uM;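 further: ATP exposure 15 min at 22 °C before imaging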
// not fulfilled strictly below 1 in switch fluorescence ratio; fulfilled otherwise

Task item: Say whether `GGGATCATGG` shows switch fluorescence ratio of 1 or more.
Reply: fulfilled

Task item: Say whether `TGTGGTTTTG` shows switch fluorescence ratio of 1 or more.
Reply: not fulfilled

Task item: Say whether `AGACATCCTT` shows switch fluorescence ratio of 1 or more.
Reply: fulfilled

Task item: Say whether `ACCCGACGAG` shows switch fluorescence ratio of 1 or more.
Reply: fulfilled

###

Give switch fluorescence ratio for every item shown.
test system: ATP; assay: switch fluorescence ratio, 500 uM ATP over buffer (Cy3 cluster intensity, sum of 5 cycles each) (fold (ratio)); higher = stronger signal-on switching upon ATP binding; sequences stand for … in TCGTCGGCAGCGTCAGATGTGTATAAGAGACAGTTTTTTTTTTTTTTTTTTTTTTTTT…TC; settings: aptamer strand: ATP DNA aptamer (quencher-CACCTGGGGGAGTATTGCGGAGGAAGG + anchor), 100 nM annealed; ATP concentration: 500 uM;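 further: ATP exposure 15 min at 22 °C before imaging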

Some solved cases for reference:
RESIDUE SEQUENCE	ATTRIBUTE MEASURED	EXPERIMENTAL VALUE
GTCGGGGGGG	switch fluorescence ratio	0.999
CGGAGTTGAA	switch fluorescence ratio	1.07

Below are some sequences; for each one, tell me its switch fluorescence ratio.
1. CGAAGGGTTA
2. CGGAGGGGCT
3. GGGAGCTGAG
4. TTCAGTATCA
5. AGGGTTAGGC
6. TTGTTAGGGT
7. TGTTCCTTTT
8. GTGGTTTGCT

Reply:
1. 0.971
2. 1.03
3. 1.01
4. 1.06
5. 0.933
6. 0.958
7. 1.03
8. 1.01

Below are some sequences; for each one, tell me its switch fluorescence ratio.
1. AAAAGGAGGG
2. TGAGGGGGGT
3. AGCATAGTCG
4. TTCATAGGCA
5. CGGCTTTTTA
6. CCAACCATTG
7. AGATGTGGGT
8. GTTAAGGGCC

Reply:
1: 0.999; 2: 0.976; 3: 1.04; 4: 1; 5: 0.959; 6: 1.03; 7: 0.972; 8: 0.99

Below are some sequences; for each one, tell me its switch fluorescence ratio.
1. TGAATTCTTT
2. GGTAGTTCCT
3. CAGTGGCGTA

Reply:
[0.968, 1.02, 1.01]

###

system: ATP; assay: switch fluorescence ratio, 500 uM ATP over buffer (Cy3 cluster intensity, sum of 5 cycles each) (fold (ratio)); higher = stronger signal-on switching upon ATP binding; sequences stand for … in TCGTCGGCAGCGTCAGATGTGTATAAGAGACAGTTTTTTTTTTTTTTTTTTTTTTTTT…TC; conditions: aptamer strand: ATP DNA aptamer (quencher-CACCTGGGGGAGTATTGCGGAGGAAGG + anchor), 100 nM annealed; ATP concentration: 500 uM;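 further: ATP exposure 15 min at 22 °C before imaging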
Give switch fluorescence ratio for every item shown.
One number for each entry.

Some solved cases for reference:
RESIDUE SEQUENCE	EXPERIMENTAL VALUE
GAGGGGCAGT	0.975
GATTTAGACG	0.945
CTTTGTAGGG	1.01
GGGTTGTTTC	0.973
AAGTTTATTA	0.964

Below are some sequences; for each one, tell me its switch fluorescence ratio.
1. TAGGTGTTAT
2. ATTGAACCGG
3. AGTATGGAGC

Reply:
[1.02, 1.04, 0.998]

###

tested on: ATP; experiment: switch fluorescence ratio, 500 uM ATP over buffer (Cy3 cluster intensity, sum of 5 cycles each) (fold (ratio)); higher = stronger signal-on switching upon ATP binding; sequences stand for … in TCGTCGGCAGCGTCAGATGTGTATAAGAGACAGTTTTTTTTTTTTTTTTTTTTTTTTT…TC; conditions: aptamer strand: ATP DNA aptamer (quencher-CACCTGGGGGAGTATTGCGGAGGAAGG + anchor), 100 nM annealed; ATP concentration: 500 uM;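 further: ATP exposure 15 min at 22 °C before imaging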
Give switch fluorescence ratio for every item shown.
One number for each entry.

RESIDUE SEQUENCE	switch fluorescence ratio
TATATGGCGA	0.995

Below are some sequences; for each one, tell me its switch fluorescence ratio.
1. GGGTGACAAC
2. AGGTTGGCGT
3. CCGCCCTATT
4. TAAGATTCGG
5. GTACTGGATT

Reply:
1: 1; 2: 0.995; 3: 1.4; 4: 0.968; 5: 0.988

###

tested on: ATP; assay: switch fluorescence ratio, 500 uM ATP over buffer (Cy3 cluster intensity, sum of 5 cycles each) (fold (ratio)); higher = stronger signal-on switching upon ATP binding; sequences stand for … in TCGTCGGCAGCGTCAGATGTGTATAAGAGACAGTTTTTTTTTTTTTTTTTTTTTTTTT…TC; settings: aptamer strand: ATP DNA aptamer (quencher-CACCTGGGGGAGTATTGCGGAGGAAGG + anchor), 100 nM annealed; ATP concentration: 500 uM;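 further: ATP exposure 15 min at 22 °C before imaging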
ATTRIBUTE MEASURED: switch fluorescence ratio
Answers are plain numbers.

Some solved cases for reference:
RESIDUE SEQUENCE	TARGET OF ASSAY	switch fluorescence ratio
TCTATGAGGG	ATP	1.01
CCTTGGGGGG	ATP	1.03

Below are some sequences; for each one, tell me its switch fluorescence ratio.
1. TTGAGTTGGG
2. TGCAAGGTCG
3. TGAAAGCCGG

Reply:
0.973
1.03
0.965

Below are some sequences; for each one, tell me its switch fluorescence ratio.
1. GCGGGGTTTG
2. CAGTACCTAA
3. TGTGATTGTT
4. AGTAGGTAGG
5. AGACGCCAAG

Reply:
1.01
1.04
1.02
0.981
1.01

These entries and their values trace back to the supplement of paper PMC10126150.
